Just for reference, ChEMBL document CHEMBL5321228 is where these values come from.

Please provide measured Emax for the entries that follow.
target: Protein cereblon/Tyrosine-protein kinase BTK (Homo sapiens, UniProt Q06187+Q96SW2); assay: PROTAC activity at CRBN/BTK in human JeKo-1 cells assessed as induction of BTK degradation by measuring maximal efficacy at 1.6 to 1000 nM incubated for 24 hrs by Western blotting analysis relative to control; format: cell-based; conditions: dose 1.6-1000 nM
Sequence (Q06187 2-659 limits assumed): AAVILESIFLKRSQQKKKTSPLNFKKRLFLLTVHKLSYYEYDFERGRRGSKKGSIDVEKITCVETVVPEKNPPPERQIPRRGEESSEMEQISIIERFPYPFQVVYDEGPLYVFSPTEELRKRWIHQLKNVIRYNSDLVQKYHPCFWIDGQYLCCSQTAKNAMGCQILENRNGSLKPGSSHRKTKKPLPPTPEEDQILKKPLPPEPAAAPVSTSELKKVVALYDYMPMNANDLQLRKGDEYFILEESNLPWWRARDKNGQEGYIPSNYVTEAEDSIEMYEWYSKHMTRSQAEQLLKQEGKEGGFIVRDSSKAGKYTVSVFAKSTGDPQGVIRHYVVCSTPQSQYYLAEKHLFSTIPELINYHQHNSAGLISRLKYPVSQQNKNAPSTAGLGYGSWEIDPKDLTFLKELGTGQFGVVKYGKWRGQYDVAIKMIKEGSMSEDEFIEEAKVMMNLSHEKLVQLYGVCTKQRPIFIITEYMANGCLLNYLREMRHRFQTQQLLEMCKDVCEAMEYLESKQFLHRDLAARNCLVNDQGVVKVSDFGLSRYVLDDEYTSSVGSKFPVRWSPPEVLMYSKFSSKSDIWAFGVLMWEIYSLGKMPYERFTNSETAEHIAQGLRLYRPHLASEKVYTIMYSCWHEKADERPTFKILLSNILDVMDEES
Sequence (Q96SW2 whole entry partner): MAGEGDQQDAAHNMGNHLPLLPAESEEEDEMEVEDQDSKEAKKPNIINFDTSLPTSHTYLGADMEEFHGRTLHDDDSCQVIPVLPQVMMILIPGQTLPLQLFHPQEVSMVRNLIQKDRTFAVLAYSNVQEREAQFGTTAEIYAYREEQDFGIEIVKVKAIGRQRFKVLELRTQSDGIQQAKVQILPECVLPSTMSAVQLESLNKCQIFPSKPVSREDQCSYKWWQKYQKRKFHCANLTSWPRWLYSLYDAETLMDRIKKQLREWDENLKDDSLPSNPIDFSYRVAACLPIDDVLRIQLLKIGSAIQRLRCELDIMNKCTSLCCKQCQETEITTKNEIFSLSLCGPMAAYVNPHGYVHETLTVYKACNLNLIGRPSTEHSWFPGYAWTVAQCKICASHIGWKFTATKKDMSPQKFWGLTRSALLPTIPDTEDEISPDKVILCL
Answers are plain numbers, in %.

>>> value_measured("O=C1CCC(N2Cc3cc(N4CCC(CCN5CCC(CC(=O)N[C@H]6CC[C@@H](Nc7ncnc8[nH]cc(C(=O)c9ccc(Oc%10ccccc%10)cc9Cl)c78)CC6)CC5)CC4)ccc3C2=O)C(=O)N1 (some centres undefined)")
90.1
>>> value_measured("O=C1CCC(N2C(=O)c3cccc(NCCOCCOCCOCCOCCOCCNC(=O)N[C@H]4CC[C@@H](Nc5ncnc6[nH]cc(C(=O)c7ccc(Oc8ccccc8)cc7Cl)c56)CC4)c3C2=O)C(=O)N1 (some centres undefined)")
93.8
>>> value_measured("O=C1CCC(N2Cc3cc(N4CCC(CCN5CCC(CC(=O)N[C@H]6CC[C@@H](Nc7ncnc8[nH]cc(C(=O)c9ccc(Oc%10ccccc%10)cc9Cl)c78)CC6)CC5)CC4)c(F)cc3C2=O)C(=O)N1 (some centres undefined)")
96.5

Now consider a different molecule.
Emax for O=C1CCC(N2Cc3ccc(N4CCC(CCN5CCC(CC(=O)N[C@H]6CC[C@@H](Nc7ncnc8[nH]cc(C(=O)c9ccc(Oc%10ccccc%10)cc9Cl)c78)CC6)CC5)CC4)cc3C2=O)C(=O)N1 (some centres undefined) ?
90.6
